- MEASURED ON: human OPRM1 (μ, MOR) (Homo sapiens)
- Construct: host or cells: CHO-K1
- ASSAY METHOD TEXT: cell-based
- DETAILS: PathHunter human OPRM1 Arrestin CHO-K1 cell line; read-out: β-Arrestin EC50
pEC50: −log10 of the molar value. Structures can show the parent of a compound that is named as a salt.

| COMPOUND | pEC50 |
| --- | --- |
| CN(C)C(CNC(=O)N1CCCc2cc(F)ccc21)c1ccccc1 (stereo not drawn) [Compound 70a] | 4.96 |
| CN(C)C(CNC(=O)N[C@@H]1CCc2ccc(O)cc2C1)c1ccsc1 (stereo partly drawn) | < 4.00 |
| CN(C)C(CNC(=O)N1Cc2ccc(Cl)cc2C1)c1ccsc1 (stereo not drawn) [Compound 4a, hydrochloride] | < 4.00 |
| CN(C)C(C)(C)CNC(=O)N1Cc2ccc(F)cc2C1 | < 4.00 |
| COc1ccc(C(CNC(=O)N2CC[C@H](c3ccccc3)C2)N(C)C)cc1 (stereo partly drawn) | < 4.00 |
| CN(C)C(CNC(=O)N1Cc2ccccc2C1)c1ccccc1 (single isomer, unassigned) [Compound 58] | 5.72 |
| CN(C)C1(CNC(=O)N2Cc3ccccc3C2)CCCCC1 | 5.35 |
| CNC(CNC(=O)N1Cc2ccccc2C1)c1ccsc1 (stereo not drawn) [Compound 78] | < 4.00 |
| CN(C)C(CNC(=O)N[C@H]1CCc2ccc(O)cc2C1)c1ccsc1 (stereo partly drawn) | < 4.00 |

---

Entries and their Emax values follow.
- MEASURED ON: human OPRM1 (μ, MOR) (Homo sapiens, UniProt P35372)
- Construct: host or cells: CHO-K1
- Sequence (P35372 whole entry): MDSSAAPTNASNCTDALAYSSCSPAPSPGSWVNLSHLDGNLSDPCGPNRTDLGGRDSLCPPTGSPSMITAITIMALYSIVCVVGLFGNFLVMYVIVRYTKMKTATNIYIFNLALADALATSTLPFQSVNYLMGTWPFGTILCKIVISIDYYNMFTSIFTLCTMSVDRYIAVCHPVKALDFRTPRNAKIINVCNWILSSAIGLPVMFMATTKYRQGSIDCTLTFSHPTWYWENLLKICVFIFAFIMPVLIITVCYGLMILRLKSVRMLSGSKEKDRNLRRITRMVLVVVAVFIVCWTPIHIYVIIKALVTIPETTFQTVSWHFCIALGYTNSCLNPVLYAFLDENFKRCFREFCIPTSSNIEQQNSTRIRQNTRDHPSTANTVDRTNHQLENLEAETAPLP
- ASSAY METHOD TEXT: cell-based
- DETAILS: OPRM1, read-out: cAMP Emax
Where a name gives a salt, the structure may show the parent alone.

| COMPOUND | RESULT UNIT | Emax |
| --- | --- | --- |
| CN(C)[C@@H](CCNC(=O)N[C@H]1CCc2ccccc2C1)c1ccsc1 | % | 11.2 |
| CN(C)C(CNC(=O)N1Cc2ccc(F)cc2C1)c1ccc(O)cc1 (stereo not drawn) | % | 4.5 |
| CN(C)C(CNC(=O)N(C)[C@@H]1CCCc2ccccc21)c1ccsc1 (stereo partly drawn) | % | 101 |
| CN(C)C(CNC(=O)N1Cc2cccc(F)c2C1)c1ccsc1 (stereo not drawn) [Compound 3a, hydrochloride] | % | 94.2 |
| CN(C)C(CNC(=O)N1CC[C@@H](c2ccccc2)C1)c1ccsc1 (stereo partly drawn) | % | 9.6 |
| CN(C)C(CNC(=O)N1Cc2ccccc2C1)c1ccsc1 (stereo not drawn) [Compound 1a, hydrochloride] | % | 69.2 |
| CN(C)C(CNC(=O)NC1CCCc2c(O)cccc21)c1ccsc1 (stereo not drawn) | % | 108 |
| CN(C)C1(CNC(=O)N2Cc3ccccc3C2)CCCCC1 | % | 113 |
| CNC(CNC(=O)N1Cc2ccccc2C1)c1ccccc1 (single isomer, unassigned; (-)) [Compound 38-ent-A] | % | 81.6 |

---

Entries and their EC50 values follow.
- MEASURED ON: human OPRM1 (μ, MOR) (Homo sapiens, UniProt P35372)
- Construct: host or cells: CHO-K1
- ASSAY METHOD TEXT: cell-based
- DETAILS: PathHunter human OPRM1 Arrestin CHO-K1 cell line; read-out: β-Arrestin EC50
- Method: The Discoverx PathHunter® β-Arrestin assay is used to measure β-arrestin-2 activity. The technology is based on Enzyme Fragment Complementation (EFC) with β-galactosidase (β-Gal) as the reporter. […] EA is fused to Q-arrestin-2, and ED is fused to the C-terminus of the GPCR of interest. When a ligand binds and the GPCR is activated, Q-arrestin-2 is recruited to the receptor resulting in an ED/EA complementation, restoring f-Gal activity, which is measured using chemiluminescence. […]
Structures can show the parent of a compound that is named as a salt.

| COMPOUND | EC50 |
| --- | --- |
| CN(C)[C@@H](CCNC(=O)N[C@@H]1CCc2ccccc2C1)c1ccsc1 | > 100 µM |
| CNC(CNC(=O)N1Cc2cccc(F)c2C1)c1ccsc1 (stereo not shown) [Compound 81] | > 100 µM |
| CN(C)C(CNC(=O)N1Cc2ccc(O)cc2C1)c1ccsc1 (stereo not shown) [Compound 22, hydrobromide] | > 100 µM |
| CN(C)C1(CNC(=O)N2Cc3ccc(F)cc3C2)CCOCC1 | > 100 µM |
